Tested on: K4 kissing-loop RNA reporter;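 also: bound reporter read as fluorescence of individual clusters on recovered sequencing chips by microscopy, with normalized cluster intensities fitted with a binding model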
Assay Protocol: apparent KD of K4 kissing-loop reporter; higher = weaker reporter binding
Assay Setup: Eterna round: R107; input ligand: theophylline 20 uM
apparent KD of K4 kissing-loop reporter reference
Provide the reading as a plain figure in nM.

These solved cases illustrate the format of a correct answer.
Chain	Target Under Test	Unit Of Measurement	apparent KD of K4 kissing-loop reporter
GGCAUCCAUGGACAUAGUGAUGUUAUGUGCCGAGGACCGGUACGGCCGCCACUCGACCAUGGAUGCCGCAAUCGGAAACGAUUGC	K4 kissing-loop RNA reporter	nM	888
UAACUUGCAGUGAUGUUGCAAGAACUGGAUACCAGCAUGGAAACAUGCCCUUGGCAGCCAGAAGCUGGCUGCUUGUAAUGUCAGC [Design6]	K4 kissing-loop RNA reporter	nM	131
AGCAGGAGUGAUGUUCCUGUGGCAUAAGUUCGAGGACCGGUACGGCCGCCACUCGUAACAUUAAUCCGUCCUUGAUCAGAUAAGA [theeternabot_sameState_KL_Trp_A_12]	K4 kissing-loop RNA reporter	nM	243
CCAUCGCUAUUCGAUACCAGUCAUUUUUUAUUUUUUUUUUUUUUUGGAGUGAUGUUCCAAGACCCUUGGCAGCGAAUAGUGAUGG [whbob_SS_Theo_B_th77]	K4 kissing-loop RNA reporter	nM	114
GGCGCUGUCUGUGCCGCCCUCCUCGUCCCUCGAGGACCGGUACGGCCGCCACUCGAGUGAUGUUCGGGUAGCCCUCCCUGCCAGC [BDazzled - #22 Exc. Tryptophan A]	K4 kissing-loop RNA reporter	nM	382

Then this sequence:
[Q] Requested field: apparent KD of K4 kissing-loop reporter. Item: UUGUUUGGUUGAGAGGUUGGGCGAGAUGAUACCAGUAUAUAAGAAUACCCUUGGCAGCAUAAGAAAGAUAUAGUGAUGUUGUAUA [SSTheophA.M]
[A] 672
